B1: library; numbered along this chain (parent)
chain: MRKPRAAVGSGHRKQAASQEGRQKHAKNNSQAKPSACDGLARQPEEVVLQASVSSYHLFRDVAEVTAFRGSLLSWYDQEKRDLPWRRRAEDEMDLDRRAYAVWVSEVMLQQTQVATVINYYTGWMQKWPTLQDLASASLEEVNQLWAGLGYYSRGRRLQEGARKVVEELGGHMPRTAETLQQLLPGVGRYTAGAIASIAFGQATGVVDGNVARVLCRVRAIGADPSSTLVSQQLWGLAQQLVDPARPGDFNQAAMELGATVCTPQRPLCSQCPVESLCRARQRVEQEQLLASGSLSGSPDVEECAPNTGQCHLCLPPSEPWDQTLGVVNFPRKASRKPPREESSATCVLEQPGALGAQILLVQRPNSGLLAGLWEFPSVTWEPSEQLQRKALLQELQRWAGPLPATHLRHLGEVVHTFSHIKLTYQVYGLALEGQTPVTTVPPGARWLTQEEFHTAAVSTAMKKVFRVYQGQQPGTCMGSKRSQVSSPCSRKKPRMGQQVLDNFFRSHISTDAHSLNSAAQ

Variants of: B1
experimental.details: 8OG:A repair function score (normalized; synonymous = 0, nonsense = -1) (normalized log-likelihood score); higher = more repair activity (WT-like);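 further: cells sorted at 72 h after reporter transfection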
measurement.conditions: with 8OG:A DNA repair reporter (GFP) in HEK-293 MUTYH KO cells
I'd be grateful if you could share measured 8OG:A repair function score for these entries.
Give bare numbers.

| variant.identifier | endpoint.value |
| --- | --- |
| L408D | -0.946 |
| A212E | 0.196 |
| P306H | -0.0537 |
| N517F | -0.0651 |

Fill in 8OG:A repair function score for each of the 4 variants listed.
1. D208K
2. A220Q
3. Y120N
4. Q233C

[-0.994, -0.691, -0.333, -0.188]
